# assay.comment: LNP size and polydispersity index by Malvern Zetasizer dynamic light scattering (CA HA modFlu mRNA LNPs)
# Type: physicochemical
# experimental.setup: LNP with CA HA modFlu mRNA; DLS
Please note: PDI exactly at 0.09 is f. Only values below 0.09 get t.

>>> group("CCCCCC/C=C\\CCCC(=O)OCC(COC(=O)C(CCCCCC)CCCCCCCC)N1CCC2(CCN(CCCCO)CC2)CC1 (centres unmarked) [Example 43]")
"f"
>>> group("CCCCCCCCC(CCCCC)C(=O)O[C@@H]1CC2(CCN(CCCCO)CC2)C[C@H]1OC(=O)C(CCCCC)CCCCCCCC (mixture of isomers) [Example 65]")
"t"
>>> group("CCCCCCCCC(CCCCCC)C(=O)O[C@@H]1CC2(CCN(CCCCO)CC2)C[C@H]1OC(=O)C(CCCCCC)CCCCCCCC (mixture of isomers) [Example 61]")
"f"
>>> group("CCCCCCCC(CCCCCCC)CCC(=O)OCC(COC(=O)CCC(CCCCCCC)CCCCCCC)N1CCC2(CCN(CCCCO)CC2)CC1 [Example 40]")
"t"
>>> group("CCCCCCCC(CCCCCCC)C(=O)O[C@@H]1CC2(CCN(CCCCO)CC2)C[C@H]1OC(=O)C(CCCCCCC)CCCCCCC (single isomer, unassigned) [Example 57]")
"f"
>>> group("CCCCCCCC(CCCCCCC)C(=O)OCC(COC(=O)C(CCCCCCC)CCCCCCC)N1CCC2(CCN(CCCCCO)C2)C1 (centres unmarked) [Example 41]")
"t"
>>> group("CCCCCCCC(CCCCCCC)C(=O)O[C@@H]1CC2(CCN(CCCNc3c(NC)c(=O)c3=O)CC2)C[C@H]1OC(=O)C(CCCCCCC)CCCCCCC (racemic) [Example 55]")
"f"
>>> group("CCCCCCCCCC(=O)OCC(COC(=O)C(CCCCCC)CCCCCCCC)N1CCC2(CCN(CCCCO)CC2)CC1 (centres unmarked) [Example 42]")
"t"
>>> group("CCCCCCCCCCCCC(CCCCCCC)C(=O)OCC(COC(=O)C(CCCCCCC)CCCCCCCCCCCC)N1CCC2(CCN(CCCCO)CC2)CC1 (centres unmarked) [Example 31]")
"f"
>>> group("CCCCCCCCC(CCC1CCC1)C(=O)OCC(COC(=O)C(CCCCCCCC)CCC1CCC1)N1CCC2(CCN(CCCCO)CC2)CC1 (centres unmarked) [Example 36]")
"t"
>>> group("CCCCCCCCC(CC1CCCC1)C(=O)OCC(COC(=O)C(CCCCCCCC)CC1CCCC1)N1CCC2(CCN(CCCCO)CC2)CC1 (centres unmarked) [Example 32]")
"t"
>>> group("CCCCCCCCCC(CCCCCC)C(=O)O[C@@H]1CC2(CCN(CCCCO)CC2)C[C@H]1OC(=O)C(CCCCCC)CCCCCCCCC (mixture of isomers) [Example 67]")
"f"
>>> group("CCCCCCCCC(CCCCCC)C(=O)OCC(COC(=O)C(CCCCCC)CCCCCCCC)N1CCC2(CCN(C(C)CCCO)CC2)CC1 (centres unmarked) [Example 21]")
"t"
>>> group("CCCCCCCC(CCCCCCC)C(=O)OCCCCCC(=O)O[C@@H]1CC2(CCN(CCCCO)CC2)C[C@H]1OC(=O)CCCCCOC(=O)C(CCCCCCC)CCCCCCC (racemic) [Example 64]")
"t"
>>> group("CCCCCCCC(CCCCCCC)C(=O)OCC(COC(=O)C(CCCCCCC)CCCCCCC)N1CC2(CCN(CCCCO)CC2)C1 [Example 13]")
"t"
>>> group("CCCCCCCCC(CCCCCC)C(=O)OCCC(CCOC(=O)C(CCCCCC)CCCCCCCC)N1CCC2(CCN(CCCCO)CC2)CC1 (centres unmarked) [Example 15]")
"f"
>>> group("CCCCCCCCC(CCCCCCC)C(=O)OCC(COC(=O)C(CCCCCCC)CCCCCCCC)N1CCC2(CCN(CCCCO)CC2)CC1 (centres unmarked) [Example 26]")
"t"
>>> group("CCCCCCCC(CCCCCCC)C(=O)OCC(COC(=O)C(CCCCCCC)CCCCCCC)N1CCC2(CCN(CCCCO)CC2)CC1 [Example 3]")
"t"
>>> group("CCCCCCCCC(CCCCCC)C(=O)OCC(COC(=O)C(CCCCCC)CCCCCCCC)N1CCC2(CC1)CN(CCCCO)C2 (centres unmarked) [Example 50]")
"t"
>>> group("CCCCCCCCC(CCCCC)C(=O)OCC(COC(=O)C(CCCCC)CCCCCCCC)N1CCC2(CCN(CCCCO)CC2)CC1 (centres unmarked) [Example 29]")
"t"
>>> group("CCCCCCCCCC(CCCC)C(=O)OCC(COC(=O)C(CCCCCC)CCCCCCCC)N1CCC2(CCN(CCCCO)CC2)CC1 (centres unmarked) [Example 45]")
"t"
>>> group("CCCCCCCCC(CCCCCC)C(=O)OCC(COC(=O)C(CCCCCC)CCCCCCCC)N1CC2(CCN(CCCCCO)CC2)C1 (centres unmarked) [Example 49]")
"f"
>>> group("CCCCCCCCC(CCCCCC)C(=O)OCC(COC(=O)C(CCCCCC)CCCCCCCC)N1CC2(CCN(CCCCO)CC2)C1 (centres unmarked) [Example 34]")
"t"

Values compiled from patent US20250367129A1.
